Biological target: FGFR1 (UniProt P11362)
Sequence (P11362 whole entry, looked up): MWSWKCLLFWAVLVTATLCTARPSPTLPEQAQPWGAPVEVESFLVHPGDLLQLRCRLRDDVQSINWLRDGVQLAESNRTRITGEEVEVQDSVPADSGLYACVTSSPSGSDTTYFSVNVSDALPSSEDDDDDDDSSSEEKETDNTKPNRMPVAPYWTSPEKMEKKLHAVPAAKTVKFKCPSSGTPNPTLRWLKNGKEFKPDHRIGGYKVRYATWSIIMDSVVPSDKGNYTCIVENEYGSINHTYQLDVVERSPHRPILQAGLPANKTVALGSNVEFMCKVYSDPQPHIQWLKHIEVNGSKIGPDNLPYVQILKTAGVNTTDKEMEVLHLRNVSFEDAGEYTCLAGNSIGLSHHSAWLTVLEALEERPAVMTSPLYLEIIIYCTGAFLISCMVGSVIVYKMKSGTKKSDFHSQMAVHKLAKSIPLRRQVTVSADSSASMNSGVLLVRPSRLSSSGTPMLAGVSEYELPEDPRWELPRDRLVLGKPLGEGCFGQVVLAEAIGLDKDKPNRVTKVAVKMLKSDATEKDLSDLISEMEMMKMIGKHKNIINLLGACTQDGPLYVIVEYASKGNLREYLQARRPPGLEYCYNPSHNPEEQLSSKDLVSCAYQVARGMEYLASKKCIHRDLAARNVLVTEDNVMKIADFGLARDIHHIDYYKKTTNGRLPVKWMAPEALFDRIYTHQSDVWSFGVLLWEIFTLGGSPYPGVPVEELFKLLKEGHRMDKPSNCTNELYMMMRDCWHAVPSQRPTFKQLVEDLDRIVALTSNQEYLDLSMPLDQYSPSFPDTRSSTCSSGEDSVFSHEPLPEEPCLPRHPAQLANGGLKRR
Assay: phosphorylation enrichment, bacterial display (enrichment ratio); higher = better substrate or ligand; peptides without Tyr show the background;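 note: 11-residue human phosphosite peptides and single-mutation variants displayed on the E. coli surface, counted by deep sequencing, each peptide's frequency after selection divided by its frequency in the unselected input library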;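 note: frequency after pTyr selection over input frequency; kinase dosed for 20-30% of maximal phosphorylation in three min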
measure-name: phosphorylation enrichment

### Prompt Consider the sequence shown here: AEFGLYAAMVR [VSX2_Y222_G223A_YF] What is its recorded phosphorylation enrichment?
### Response 0.614

### Prompt Which measured phosphorylation enrichment value corresponds to AGGTRYRYVSQ [UCN3_Y95_R91G] ?
### Response 0.397

### Prompt Data request, read-out phosphorylation enrichment, for AIQDAYMHITS [ADCY10_Y318]
### Response 0.576

### Prompt Reported phosphorylation enrichment for PSQRRNVFFFS [PTEN_Y174_Y174N_YF] : what is it?
### Response 1.07

### Prompt What does the data say about its phosphorylation enrichment? Entry: QRCYVYYYSYL [PTEN_Y176_R173C]
### Response 2.09

### Prompt Request the reported phosphorylation enrichment associated with REGAKYVSHGA [ASS1_Y113]
### Response 0.385

### Prompt Recorded phosphorylation enrichment for FAELMYTGFWH [ASS1_Y322_V321M] , please?
### Response 2.32
